# systemUnderTest: MAGL (Mus musculus)
# Construct: Proteomes (mouse brain membrane fraction or cell lysates); from tissue; host or cells: mouse brain membrane fraction (or cell lysates, not specified)
# Sequence (O35678 1-303): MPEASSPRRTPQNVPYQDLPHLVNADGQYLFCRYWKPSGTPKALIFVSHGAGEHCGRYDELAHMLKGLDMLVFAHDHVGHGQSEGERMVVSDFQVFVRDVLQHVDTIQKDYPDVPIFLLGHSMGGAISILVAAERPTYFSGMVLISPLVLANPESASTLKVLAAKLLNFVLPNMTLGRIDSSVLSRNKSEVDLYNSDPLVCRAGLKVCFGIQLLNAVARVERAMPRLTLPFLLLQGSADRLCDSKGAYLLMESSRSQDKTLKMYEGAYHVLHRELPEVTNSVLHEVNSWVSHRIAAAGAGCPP
# assayMethodText: In vitro competitive activity-based protein profiling (gel-based, FP-Rh or HT-01 probe)
# Assay type: biochemical
# conditionContext: mouse brain membrane fraction or cell lysates, 30 min preincubation at 37° C.; read-out: Mouse (IC50 value, nM) MAGL
Listed below: IC50 values for each entry.

See these solved cases before continuing.
O=C(c1cnn(C(=O)N2CCN(C(c3ccc(Cl)cc3)c3ccc(Cl)cc3)CC2)c1)N1CCCCC1: 100 to 1000 nM
O=C(N1CCN(Cc2cccc(Cl)c2)CC1)n1cc(C(F)(F)F)cn1: < 100 nM
Cc1cc(-c2ccccc2)ccc1CN1CCN(C(=O)n2cc(C(=O)N3CCCCC3)cn2)CC1: 100 to 1000 nM
CCN(Cc1ccc(Cl)cc1)C(=O)n1cc(C(F)(F)F)cn1: > 1000 nM
O=C(c1cnn(C(=O)N2CCN(C(c3ccc(Cl)cc3)c3ccc(Cl)cc3)CC2)c1)N1CCCC1: 100 to 1000 nM

// sample O=C(N1CCCCC1)n1cc(C(F)(F)F)cn1 , its IC50 was > 1000 nM

// sample Cc1cc(-c2ccccc2)ccc1CN1CCN(C(=O)n2cc(C(F)(F)F)cn2)CC1 , its IC50 was < 100 nM

// sample O=C(N1CCN(C(c2ccc(Cl)cc2)c2ccc(Cl)cc2)CC1)n1cc(C(F)(F)F)cn1 , its IC50 was < 100 nM

###

Listed below: IC50 values for each entry.
# systemUnderTest: MAGL (Mus musculus, UniProt O35678)
# Construct: Proteomes (mouse brain membrane fraction or cell lysates); from tissue; host or cells: mouse brain membrane fraction (or cell lysates, not specified)
# assayMethodText: In vitro competitive activity-based protein profiling (gel-based, FP-Rh or HT-01 probe)
# Assay type: biochemical
# conditionContext: mouse brain membrane fraction or cell lysates, 30 min preincubation at 37° C.; read-out: Mouse (IC50 value, nM) MAGL

See these solved cases before continuing.
O=C(N1CCN(Cc2cccc(N3CCCC3)c2)CC1)n1cc(C(F)(F)F)cn1: < 100 nM
CNC(=O)c1cnn(C(=O)N2CCN(Cc3ccc(Cl)cc3)CC2)c1: 100 to 1000 nM
COc1cc(-c2ccccc2)ccc1CN1CCN(C(=O)n2cc(Cl)cn2)CC1: < 100 nM
O=C(N1CCN(Cc2cccc(Cl)c2)CC1)n1cc(Cl)cn1: < 100 nM
CCN(Cc1cccc(Cl)c1)C(=O)n1cc(Cl)cn1: > 1000 nM
Cc1cc(-c2ccccc2)ccc1CN1CCN(C(=O)n2cc(C(=O)N3CCCC3)cn2)CC1: 100 to 1000 nM

// sample O=C(N1CCN(Cc2ccc(C(F)(F)F)cc2N2CCCC2)CC1)n1cc(Cl)cn1 , its IC50 was < 100 nM

// sample N#Cc1cnn(C(=O)N2CCCN(C(=O)c3ccccc3)CC2)c1 , its IC50 was 100 to 1000 nM

// sample CCN(Cc1ccc(N2CCOCC2)cc1)C(=O)n1cc(C(F)(F)F)cn1 , its IC50 was 100 to 1000 nM

// sample Cc1cc(N2CCN(C(=O)n3cc(C(F)(F)F)cn3)CC2)c2ccccc2n1 , its IC50 was < 100 nM

// sample O=C(N1CCN(Cc2c(N3CCCC3)cccc2C(F)(F)F)CC1)n1cc(F)cn1 , its IC50 was < 100 nM

// sample N#Cc1cnn(C(=O)N2CCN(Cc3ccc(OCc4ccccc4)cc3)CC2)c1 , its IC50 was < 100 nM

// sample O=C(N1CCN(Cc2ccc(-c3ccccc3)cc2Cl)CC1)n1cc(C(F)(F)F)cn1 , its IC50 was < 100 nM

###

# systemUnderTest: FAAH (Mus musculus, UniProt O08914)
# Construct: Proteomes (mouse brain membrane fraction or cell lysates); from tissue; host or cells: mouse brain membrane fraction (or cell lysates, not specified)
# Sequence (O08914 1-579): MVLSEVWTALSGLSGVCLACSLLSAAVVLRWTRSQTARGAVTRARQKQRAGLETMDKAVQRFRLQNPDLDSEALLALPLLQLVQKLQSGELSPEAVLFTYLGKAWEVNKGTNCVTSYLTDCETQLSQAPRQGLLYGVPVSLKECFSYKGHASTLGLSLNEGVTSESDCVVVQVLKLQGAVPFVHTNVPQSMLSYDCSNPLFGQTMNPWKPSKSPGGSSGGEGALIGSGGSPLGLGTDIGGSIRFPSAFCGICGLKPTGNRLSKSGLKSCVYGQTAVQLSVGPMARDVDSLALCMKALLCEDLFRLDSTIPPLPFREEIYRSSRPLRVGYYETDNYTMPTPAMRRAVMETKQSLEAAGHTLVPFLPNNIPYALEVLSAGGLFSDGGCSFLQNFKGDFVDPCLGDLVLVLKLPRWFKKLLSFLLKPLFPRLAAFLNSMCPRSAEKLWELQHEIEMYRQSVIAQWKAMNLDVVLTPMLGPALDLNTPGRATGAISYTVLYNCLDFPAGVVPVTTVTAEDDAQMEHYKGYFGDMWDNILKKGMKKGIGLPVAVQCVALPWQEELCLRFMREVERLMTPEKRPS
# assayMethodText: In vitro competitive activity-based protein profiling (gel-based, FP-Rh or HT-01 probe)
# Format: biochemical
# conditionContext: 1 μM inhibitor; read-out: % Inhibition at 1 μM, B = FAAH
Listed below: inhibition at 1 µM values for each entry.

See these solved cases before continuing.
Cc1cc(-c2ccccc2)ccc1CN1CCN(C(=O)n2cc(C#N)cn2)CC1: > 75%
COc1ccccc1N1CCN(C(=O)n2cc(C(F)(F)F)cn2)CC1: > 75%
O=C(N1CCCCC1)n1cc(C(F)(F)F)cn1: > 75%
CS(=O)(=O)N1CCCN(C(=O)n2cc(C(F)(F)F)cn2)CC1: 25 to 75%
COc1cc(-c2ccccc2)ccc1CN1CCN(C(=O)n2cc(Cl)cn2)CC1: > 75%
O=C(N1CCN(Cc2c(N3CCCC3)cccc2C(F)(F)F)CC1)n1cc(F)cn1: 25 to 75%

// sample Cc1cc(N2CCN(C(=O)n3cc(Cl)cn3)CC2)c2ccccc2n1 , its inhibition at 1 µM was > 75%

// sample O=C(N1CCN(c2cccc(N3CCCC3)c2)CC1)n1cc(C(F)(F)F)cn1 , its inhibition at 1 µM was > 75%

// sample Cc1cnn(C(=O)N2CCN(Cc3ccc(Oc4ccccc4)cc3)CC2)c1 , its inhibition at 1 µM was 25 to 75%

// sample CNC(=O)c1cnn(C(=O)N2CCN(Cc3ccc(Cl)cc3)CC2)c1 , its inhibition at 1 µM was > 75%

// sample O=C(N1CCN(Cc2ccc3c(c2)OCO3)CC1)n1cc(-c2ccccc2)cn1 , its inhibition at 1 µM was > 75%

###

# systemUnderTest: ABHD6 (Mus musculus, UniProt Q8R2Y0)
# Construct: Proteomes (mouse brain membrane fraction or cell lysates); from tissue; host or cells: mouse brain membrane fraction (or cell lysates, not specified)
# Sequence (Q8R2Y0 1-336): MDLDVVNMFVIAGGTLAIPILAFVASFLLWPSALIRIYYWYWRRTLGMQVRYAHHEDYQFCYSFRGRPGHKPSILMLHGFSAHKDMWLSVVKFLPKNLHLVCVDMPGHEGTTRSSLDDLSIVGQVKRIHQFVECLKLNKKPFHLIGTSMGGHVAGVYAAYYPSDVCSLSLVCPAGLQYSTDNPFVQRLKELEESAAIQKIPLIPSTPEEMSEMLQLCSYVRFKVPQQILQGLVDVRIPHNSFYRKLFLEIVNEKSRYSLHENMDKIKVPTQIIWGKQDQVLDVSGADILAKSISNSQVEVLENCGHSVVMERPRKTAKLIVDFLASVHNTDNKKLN
# assayMethodText: In vitro competitive activity-based protein profiling (gel-based, FP-Rh or HT-01 probe)
# Assay type: biochemical
# conditionContext: 10 μM inhibitor; read-out: % Inhibition at 10 μM, C = ABHD6
quantity: inhibition at 10 µM

See these solved cases before continuing.
CN1CCN(C(=O)n2cc(Cl)cn2)CC1 [Example 185]: > 75%
O=C(NCc1ccc2ccccc2c1)n1cccn1 [Example 43]: < 25%
O=C(N1CCN(Cc2ccccc2)CC1)n1cc(C(F)(F)F)cn1 [Example 152]: > 75%
O=C(c1cnn(C(=O)N2CCN(Cc3cncnc3)CC2)c1)N1CCCCC1 [Example 75]: > 75%
O=C(c1cnn(C(=O)N2CCN(Cc3nccs3)CC2)c1)N1CCCCC1 [Example 74]: > 75%

// sample CC(C)(C)OC(=O)N1CCCN(C(=O)n2cccn2)CC1 [Example 25] , its inhibition at 10 µM was 25 to 75%

// sample O=C(c1cnn(C(=O)N2CCN(Cc3ccncn3)CC2)c1)N1CCOCC1 [Example 54] , its inhibition at 10 µM was 25 to 75%

// sample Cc1cnn(C(=O)N2CCN(C)CC2)c1 [Example 163] , its inhibition at 10 µM was 25 to 75%
